Study System: SARS-HCoV spike protein (SARS-coronavirus (Tor-3 strain), UniProt P59594 14-1255)
Test Description: ELISA, OD on native virus against OD on heat-denatured virus
Measurement Label: O.D. Reduction, Fold (fold)

[[record]]
binder = "F26G19 (antibody, V domains shown) VH: EVQLEESGTVLARPGASVKMSCKASGYTFTTYRMHWIKQRPGQGLEWIGAIYPGNSDTTYNQKFKDKAKLTAVTSTSSAYMELSSLTNEDSAVYFCTREGIPQLLRTLDYWGQGTSVTVSS VL: DILMTQSPSSLSASLGERVSLTCRASQEISGYLSWLQEKPDGTIKRLIYAASTLDSGVPKRFSGSRSGSDYSLTISSLESEDFADYYCLQYVSYPWTFGGGTKLEIKR"
measurement_label = "O.D. Reduction, Fold"
unit_abbrev = "fold"
result_value = 6


Hello, the source for this data is patent US20080081047A1, in case you need it.
